Parameter TGI: see the listing below.
# System: SNB-78 CNS
# procedure_summary: NCI tumour cell line growth inhibition, 48 h

compound	TGI
CCCCCCCCC/C=C1\CCC(CN(C)C)C1=O (stereo unspecified)	5.03 µM
CC1(C)CC2CC(CC(C)(C)C2=O)C1=O	> 100 µM
COc1cccc(NC(=O)CC(=O)N2N=C(N3c4ccccc4Sc4ccccc43)CC2c2ccccc2)c1 (stereo unspecified)	> 100 µM
COc1ccc2nc3cc(Cl)ccc3c(SCC(=O)Nc3ccccc3-c3ccccc3NC(=O)CSc3c4ccc(Cl)cc4nc4ccc(OC)cc34)c2c1	> 100 µM

### Prompt Quick check: TGI of CC(=O)O[C@H]1CCC2[C@@H]3CCC4c5nonc5CC[C@]4(C)C3CC[C@@]21C (stereo partly specified) ?
### Response > 100 µM

### Prompt Fill in the blank: the reported TGI of CCn1cnnc1-c1nsc2ccccc12 is ____.
### Response > 100 µM
